# study system: T1, recombinant human GM-CSF (human, UniProt P04141 18-144)
# T1 construct: also called rhGM-CSF; CSF2
# T1 sequence (P04141 18-144 limits assumed): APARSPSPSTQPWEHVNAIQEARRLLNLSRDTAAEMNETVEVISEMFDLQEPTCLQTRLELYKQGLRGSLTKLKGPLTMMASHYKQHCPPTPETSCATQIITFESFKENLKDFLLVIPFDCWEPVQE
# assay notes: Biacore
The entries below are paired with their reported Kd.
Dear colleague, please return just the value in nM, with no unit written.

1D2 SDR mutant K54G/V32R (antibody, IgG1, V domains shown, also called 54G/32R) VH: QVQLVQSGAEVKKPGASVKVSCEASGYTFTDKYLHWVRQAPGQGLEWMAWINPGSGGTFYAQNFKGRVTVTRDTSINTAYLELTSLRLDDTSTYYCARGRDYYDQGAADLWGQGTMVTVSS VL: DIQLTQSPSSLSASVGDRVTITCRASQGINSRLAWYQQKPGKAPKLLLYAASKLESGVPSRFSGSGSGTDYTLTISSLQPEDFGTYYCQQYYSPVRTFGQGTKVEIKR | 1.5
1D2 SDR mutant Y103N/V32R (antibody, IgG1, V domains shown) VH: QVQLVQSGAEVKKPGASVKVSCEASGYTFTDKYLHWVRQAPGQGLEWMAWINPKSGGTFYAQNFKGRVTVTRDTSINTAYLELTSLRLDDTSTYYCARGRDYNDQGAADLWGQGTMVTVSS VL: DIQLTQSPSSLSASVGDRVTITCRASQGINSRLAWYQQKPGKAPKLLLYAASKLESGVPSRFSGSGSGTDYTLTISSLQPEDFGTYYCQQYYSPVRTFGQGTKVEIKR | 3.36

From here, focus on the item given below.
## Task Find the recorded Kd belonging to antibody 1D2 (antibody, V domains shown, also called 1D2-WT; WT) VH: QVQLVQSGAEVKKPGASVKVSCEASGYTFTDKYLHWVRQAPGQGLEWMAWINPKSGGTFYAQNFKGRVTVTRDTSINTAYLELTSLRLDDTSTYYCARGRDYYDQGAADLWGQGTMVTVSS VL: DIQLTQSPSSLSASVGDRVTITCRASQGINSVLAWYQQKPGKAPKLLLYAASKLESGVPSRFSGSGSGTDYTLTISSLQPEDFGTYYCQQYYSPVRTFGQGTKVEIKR and report it.
## Result 0.162
